# credit: patent EP4570793A1

Endpoint: IC50. System: hERG potassium channels (Homo sapiens, UniProt Q12809). Items follow.
Sequence (Q12809 whole entry): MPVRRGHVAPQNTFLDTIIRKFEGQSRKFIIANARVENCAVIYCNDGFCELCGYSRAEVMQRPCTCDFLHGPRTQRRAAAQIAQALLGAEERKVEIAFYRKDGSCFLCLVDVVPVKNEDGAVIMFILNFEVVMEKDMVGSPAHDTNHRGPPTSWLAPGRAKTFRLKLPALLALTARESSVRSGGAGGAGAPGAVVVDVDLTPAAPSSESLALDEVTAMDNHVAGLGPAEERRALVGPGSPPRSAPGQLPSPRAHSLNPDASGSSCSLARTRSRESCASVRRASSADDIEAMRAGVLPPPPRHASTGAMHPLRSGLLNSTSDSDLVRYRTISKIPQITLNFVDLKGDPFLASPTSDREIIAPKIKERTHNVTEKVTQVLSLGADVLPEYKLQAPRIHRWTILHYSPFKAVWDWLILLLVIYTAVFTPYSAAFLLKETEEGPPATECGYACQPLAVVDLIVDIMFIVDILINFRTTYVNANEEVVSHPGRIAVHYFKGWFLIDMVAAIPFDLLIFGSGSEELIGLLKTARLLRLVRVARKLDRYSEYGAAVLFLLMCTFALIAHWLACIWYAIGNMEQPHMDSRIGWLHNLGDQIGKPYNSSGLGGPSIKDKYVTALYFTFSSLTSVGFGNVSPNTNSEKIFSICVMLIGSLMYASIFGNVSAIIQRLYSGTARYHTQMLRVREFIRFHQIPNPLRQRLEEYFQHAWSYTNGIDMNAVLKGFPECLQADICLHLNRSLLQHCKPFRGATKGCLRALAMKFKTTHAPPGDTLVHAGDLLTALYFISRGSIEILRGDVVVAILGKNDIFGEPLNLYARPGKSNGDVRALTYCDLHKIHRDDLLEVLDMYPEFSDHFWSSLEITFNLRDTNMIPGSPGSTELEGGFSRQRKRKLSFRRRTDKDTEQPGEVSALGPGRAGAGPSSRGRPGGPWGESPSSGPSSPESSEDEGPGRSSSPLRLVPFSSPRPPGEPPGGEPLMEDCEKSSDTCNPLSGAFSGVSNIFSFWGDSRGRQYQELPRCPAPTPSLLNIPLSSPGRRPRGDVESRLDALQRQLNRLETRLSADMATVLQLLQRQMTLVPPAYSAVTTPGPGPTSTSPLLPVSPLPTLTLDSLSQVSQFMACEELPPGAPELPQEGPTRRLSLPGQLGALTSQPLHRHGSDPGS
Please respond with the number in µM and leave the unit unwritten.

molecule	unit-of-measure	IC50
CN1CCC(N(Cc2ccc(F)cn2)C(=O)NCc2ccc3occc3c2)CC1	µM	1.44
CN1CCC(N(Cc2ccc(F)cn2)C(=O)NCc2ccc(OCC(F)(F)F)cn2)CC1	µM	4.93
O=C(NCc1ccc(OCC(F)(F)F)nc1)N(Cc1ccc(F)cn1)C1CCNCC1F (single isomer, unassigned) [Compound 56A]	µM	15.5
CN1CCC(N(Cc2ccc(F)cn2)C(=O)NCc2ccc3[nH]ccc3c2)CC1	µM	3.12
CC(C)COc1ccc(CNC(=O)N(Cc2ccc3ncccc3c2)C2CCN(C)CC2)cc1	µM	1.32

Request: // output IC50; input CN1CC[C@H](N(Cc2ccc(F)cn2)C(=O)NCc2ccc(OCC(F)(F)F)nc2)[C@@H](F)C1 ; system hERG potassium channels (Homo sapiens, UniProt Q12809)
Response: 2.99

Request: // output IC50; input O=C(NCc1ccc(OCC(F)(F)F)nc1)N(Cc1ccc(F)cn1)C1CCNCC1F (single isomer, unassigned) [Compound 56B] ; system hERG potassium channels (Homo sapiens, UniProt Q12809)
Response: 12.6
